Kindly supply the reported Herbicidal effects index number, Monochoria vaginalis values for the records listed here.
# Tested on: Monochoria vaginalis
# test description: Herbicidal activity by paddy field soil treatment (Test Example 1)
# Type: in vivo
# Design: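 index 0 to 10 in 10% steps of herbicidal effect with 10 meaning complete death and 0 below 10%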
# condition: 1000 g of effective component per hectare, evaluated on day 21 after the treatment, criteria of Table 72

Please review the following examples before continuing.
| molecule smiles | recorded measurement |
| --- | --- |
| Cn1nc(C(=O)C2=C(O)CCCC2=O)c(=O)n(-c2ccc(Cl)cn2)c1=O | 9 |
| COc1ccc(-n2c(=O)c(C(=O)C3=C(O)CCCC3=O)nn(C)c2=O)cc1OC | 10 |
| COc1ccc(-n2c(=O)c(C(=O)C3=C(O)CCCC3=O)nn(C)c2=O)c(OC)c1 | 10 |
| Cc1cccc(-n2c(=O)c(C(=O)C3=C(O)CCCC3=O)nn(C)c2=O)c1F | 10 |
| CN(c1ccc(F)cc1)n1c(=O)c(C(=O)O)nn(C)c1=O | 10 |

Below are some molecules; for each one, tell me its Herbicidal effects index number, Monochoria vaginalis.
1. Cc1cc(F)cc(-n2c(=O)c(C(=O)C3=C(O)CCCC3=O)nn(C)c2=O)c1
2. Cn1nc(C(=O)C2=C(O)CCCC2=O)c(=O)n(-c2cc(Cl)c(S(C)(=O)=O)c(Cl)c2)c1=O
3. CC(C)Cn1c(=O)c(C(=O)C2=C(O)CCCC2=O)nn(-c2ccccn2)c1=O
4. Cn1nc(C(=O)C2=C(O)CCCC2=O)c(=O)n(-c2ccc(F)cc2)c1=O
5. Cn1c(=O)c(C(=O)C2=C(O)CCCC2=O)nn(-c2ccccn2)c1=O
6. Cn1nc(C(=O)C2=C(O)CCCC2=O)c(=O)n(CC(F)(F)F)c1=O
7. Cn1nc(C(=O)C2=C(O)CCCC2=O)c(=O)n(-c2cc(F)ccc2F)c1=O

[10, 10, 9, 10, 8, 10, 10]
